assaySystem: Nonstructural protein 3 (Zika virus)
protocolDescription: Functional biochemical assay to identify treatments for viral infectious disease that targets Zika NS2B-NS3 protease. Utilizing a direct enzyme activity measurement method, reading the fluorescence intensity is used to characterize the relative potency of inhibitors as IC50.
Set-up: species or system PRVABC59
Assignment: determine reported pIC50 for the given compounds.
# pIC50: negative log10 of molar concentration; output just the value

Q) Data request, read-out pIC50, for `c1ccc2c(CNCc3ccc(-c4cscn4)cc3)c[nH]c2c1`
A) 4.09

Q) Follow-up entry: `Cc1n[nH]c2nc(Cl)cc(C(=O)Nc3ccc4c(c3)CNC4)c12`
A) 5.43

Q) Follow-up entry: `Nc1cc(Cl)cc(C(=O)Nc2ccc3c(c2)CNC3)c1N`
A) 6.45

Q) Follow-up entry: `CCS(=O)(=O)c1ccc(Cl)cc1C(=O)Nc1cccc(CN)c1`
A) 4.09

* * *

assaySystem: UniProtKB A0A024AXB9
protocolDescription: Functional biochemical assay to identify treatments for viral infectious disease that targets Zika NS2B-NS3 protease. Utilizing a direct enzyme activity measurement method, reading the fluorescence intensity is used to characterize the relative potency of inhibitors as IC50.
Design: species or system PRVABC59
pIC50: −log10 of the molar value.
Assignment: determine reported pIC50 for the given compounds.

Q) Data request, read-out pIC50, for `O=C(O)c1cc(Cc2c[nH]c3ccc(Cl)cc23)cc(C2CC2)n1`
A) < 4.00

Q) Follow-up entry: `Cn1cc(C(F)(F)F)nc1C(=O)Nc1cc(-c2cccnc2)ccn1`
A) < 4.60

Q) Follow-up entry: `CCn1cnnc1COc1ccc(S(=O)(=O)Nc2ccc(Cl)cc2C(=O)O)cc1`
A) < 4.00

Q) Follow-up entry: `COc1cc(C(=O)Nc2cnc3ccccc3c2)nc(N2CCNCC2)n1`
A) < 4.00

Q) Follow-up entry: `O=C(Nc1cc(-c2cccnc2)ccn1)c1cc2n(n1)CCC2`
A) < 4.60

Q) Follow-up entry: `O=c1[nH]ncn1C1CCN(Cc2c[nH]c3ccccc23)CC1`
A) 4.47

Q) Follow-up entry: `C[C@H]1CCN1C(=O)Cn1ccnc(N2CC[C@H](CO)C2)c1=O`
A) < 4.00

Q) Follow-up entry: `CCCCCN(C)C(=O)c1cc(Cl)ccc1NS(=O)(=O)c1ccc(Oc2ccccc2Cl)cc1`
A) < 4.00

Q) Follow-up entry: `Cn1c(C2CC2)cc(C(=O)Nc2cc(-c3cccnc3)ccn2)c1C1CC1`
A) < 4.60

Q) Follow-up entry: `N#Cc1cc(Cl)cc(C(=O)Nc2cccc(CN)c2)c1`
A) 4.96

Q) Follow-up entry: `NCCc1ccc([C@H]2C[C@@H]2c2cc(Cl)cc(NC(=O)OCc3ccccc3)c2)cc1`
A) 5.60

Q) Follow-up entry: `COc1ccc(NS(=O)(=O)c2ccc(Cl)cc2C(=O)O)cc1N1CCCC1=O`
A) < 4.00

Q) Follow-up entry: `COc1ccc2c(O)nn(S(=O)(=O)c3ccc(C(=O)O)cc3)c2c1`
A) < 4.00

Q) Follow-up entry: `O=C(O)c1ncc(F)cc1NS(=O)(=O)c1ccc(Oc2ccccc2Cl)cc1`
A) < 4.00

Q) Follow-up entry: `O=C(/C=C/c1ccccc1)C(=O)N1CCN(CCc2ccccc2)CC1`
A) 4.35

Q) Follow-up entry: `CN1CC=C(c2cccc([C@@H](NC(=O)OCc3ccccc3)C(=O)Nc3cccc(CN)c3)c2)CC1`
A) 4.17

Q) Follow-up entry: `O=C(O)c1cc(Cl)ccc1CS(=O)(=O)c1ccc(Oc2ccccc2Cl)cc1`
A) < 4.00

Q) Follow-up entry: `O=C(NCc1cnn(CCO)c1)c1cccc2c1NC(=O)[C@]1(CCCN1)C2`
A) < 4.00

Q) Follow-up entry: `CC(C)(C)OC(=O)NCc1cc(NC(=O)c2cc(Cl)cc(NC(=O)OCc3ccccc3)c2)cc(-c2nn[nH]n2)c1`
A) 4.94

Q) Follow-up entry: `NC12CCC(CNC(=O)c3cc(Cl)cc(NC(=O)OCc4ccccc4)c3)(CC1)OC2`
A) 4.48

Q) Follow-up entry: `NCc1cccc(NC(=O)[C@H](NC(=O)COc2ccccc2)c2ccc(OCc3ccccc3)cc2)c1`
A) 4.58

Q) Follow-up entry: `COc1ccc(S(=O)(=O)Nc2cc(F)c(Cl)cc2C(=O)O)cc1`
A) < 4.00

Q) Follow-up entry: `NCCOc1ccnc(NS(=O)(=O)c2ccc(Oc3ccccc3Cl)cc2)c1`
A) < 4.00

Q) Follow-up entry: `NCc1cccc(NC(=O)[C@@H](NC(=O)OCc2ccccc2)c2ccc(OCCN3CCCCC3)cc2)c1`
A) < 4.00

Q) Follow-up entry: `CC1(C)OB(c2cccc(F)c2CNC2CCCC2)OC1(C)C`
A) < 4.00

Q) Follow-up entry: `CCN1CCN(c2ccc(NC(=O)C3CCN(c4ccc(C=O)cc4)CC3)cc2)CC1`
A) 4.09

Q) Follow-up entry: `O=C1NS(=O)(=O)c2ccc(NC(=O)c3cc(Cl)cc4[nH]ncc34)cc21`
A) < 4.60

Q) Follow-up entry: `CC[C@H](CO)NC(=O)Cn1ccnc(N2CC[C@H](CO)C2)c1=O`
A) < 4.00

Q) Follow-up entry: `CN1CCC[C@H]1COc1ccc([C@@H](NC(=O)OCc2ccccc2)C(=O)Nc2cccc(CN)c2)cc1`
A) < 4.00

Q) Follow-up entry: `C=CC[C@H](Nc1cccc(CN)n1)c1cc(Cl)cc(NC(=O)OCc2ccccc2)c1`
A) 4.60

Q) Follow-up entry: `O=C(/C=C/c1ccccc1)C(=O)N1CCOCC1`
A) < 3.70

Q) Follow-up entry: `O=C(/C=C/c1ccc(N2CCNCC2)cc1)C(=O)N1CCOCC1`
A) < 4.00

Q) Follow-up entry: `O=C(Nc1ccc2c(c1)CNC2)c1cc(Cl)cc(C(F)(F)F)n1`
A) 4.68

Q) Follow-up entry: `O=C1Cc2c(cccc2C(=O)N[C@H]2C[C@@H](c3ncc[nH]3)C2)N1`
A) < 4.60

Q) Follow-up entry: `CCn1cc(-c2ccnc(N(C)C)c2)nc(N2CC[C@@H](CO)C2)c1=O`
A) < 4.00

Q) Follow-up entry: `CCn1c(=O)c(N2CC[C@H](CO)C2)nc2ccc(C(=O)N(C)C)cc21`
A) < 4.00

Q) Follow-up entry: `NCc1cccc(NC(=O)Cc2cccc(Oc3ccncc3Br)c2)c1`
A) < 4.00

Q) Follow-up entry: `O=C(O)[C@@H]1CC2(CC[C@@H]1NS(=O)(=O)c1ccc(Oc3ccccc3Cl)cc1)CC2`
A) < 4.00

Q) Follow-up entry: `CC[C@@H](NCc1c[nH]c2ccccc12)c1cccnc1`
A) < 4.00

Q) Follow-up entry: `COc1ccc(OC)c([C@H]2CCCN2C(=O)Nc2ccc3c(c2)CNC3)c1`
A) < 4.60

Q) Follow-up entry: `O=C(NCC(F)F)[C@H](Nc1ccc2c(c1)CNC2)c1cc(Cl)cc2[nH]ncc12`
A) 6.54

* * *

assaySystem: Nonstructural protein 3 (Zika virus, UniProt A0A024AXB9)
Sequence (A0A024AXB9 whole entry): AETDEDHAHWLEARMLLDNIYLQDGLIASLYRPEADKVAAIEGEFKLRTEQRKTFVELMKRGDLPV
protocolDescription: Functional biochemical assay to identify treatments for viral infectious disease that targets Zika NS2B-NS3 protease. Utilizing a direct enzyme activity measurement method, reading the fluorescence intensity is used to characterize the relative potency of inhibitors as IC50.
Parameters: species or system PRVABC59
Assignment: determine reported IC50 for the given compounds.
Could you give me the number in µM? Just the number is fine.

Q) Data request, read-out IC50, for `O=C(Nc1ccc2c(c1)CNC2)c1cc(Br)cc2ccccc12`
A) 0.206

Q) Follow-up entry: `Cc1ccc(NC(=O)c2cc(Cl)ccc2Cl)c(C(=O)Nc2cccc(CN)c2)c1`
A) 53.9

Q) Follow-up entry: `NCc1cccc(NC(=O)[C@@H](NC(=O)OCc2ccccc2)c2ccc(OCc3ccccc3)cc2)c1`
A) 11.6

Q) Follow-up entry: `COc1ccc(F)cc1-c1ccc(S(=O)(=O)Nc2ccc(Cl)cc2C(N)=O)cc1`
A) 73.2

* * *

assaySystem: UniProtKB A0A024AXB9
protocolDescription: Functional biochemical assay to identify treatments for viral infectious disease that targets Zika NS2B-NS3 protease. Utilizing a direct enzyme activity measurement method, reading the fluorescence intensity is used to characterize the relative potency of inhibitors as IC50.
Parameters: species or system PRVABC59
recordedEndpoint: IC50 (µM)
Could you give me the number in µM? Just the number is fine.

Q) Data request, read-out IC50, for `CNCc1ccc(NC(=O)c2cc(Cl)cc3[nH]ncc23)cc1`
A) 4.34

Q) Follow-up entry: `NCc1cccc(NC(=O)c2cc(Cl)cc(F)c2F)c1`
A) 59.3

Q) Follow-up entry: `CNC(=O)c1cc(Cl)c(F)cc1NS(=O)(=O)c1ccc(Oc2ccccc2Cl)cc1`
A) 37.9

Q) Follow-up entry: `FC(F)(F)Oc1cc(Cl)cc2c(Cc3ccc(-c4nnn[nH]4)cc3)c[nH]c12`
A) 34.1

Q) Follow-up entry: `Cc1ccncc1-c1cc(CN)cc([C@@H]2C[C@H]2c2cc(Cl)cc(NC(=O)OCc3ccccc3)c2)c1`
A) 21.1

Q) Follow-up entry: `NCc1cccc(NC(=O)c2nn(-c3ccc(Cl)c(F)c3)c3c2CCC3)c1`
A) 36.9
